Biological target: T1, His-tagged PD-L1 ECD protein (ACROBiosystems) (human, UniProt Q9NZQ7 19-238)
T1 construct: Bought protein; also called PD-L1-His; PD-L1/His; not shown: His tag
T1 sequence (Q9NZQ7 19-238): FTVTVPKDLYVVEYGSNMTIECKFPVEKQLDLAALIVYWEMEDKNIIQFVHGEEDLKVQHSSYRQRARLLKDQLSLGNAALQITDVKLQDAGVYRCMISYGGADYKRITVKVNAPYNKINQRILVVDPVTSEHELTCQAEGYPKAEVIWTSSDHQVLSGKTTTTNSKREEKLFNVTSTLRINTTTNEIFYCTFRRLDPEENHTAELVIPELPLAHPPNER
Assay: SPR, supernatant IgG captured, PD-L1-His analyte
# koff annotations
State the answer as a number, implicitly in s⁻¹.

Here is how some binders turned out for koff.
binder	endpoint-unit	koff
53C1_VH.M3-VL.M1 (antibody, human IgG1, kappa, N297A, V domains shown, Chimeric mutant (VH N57Q, VL K24R in the entries); human IgG1 effector-less Fc, kappa) VH: QVQLQQSGNELARPGASVRLSCKASGYIFTGYGITWVRQRPGQGLEWIGEIFPRRVQTYYSEKFKGRATLTADISSSTAYMELRSLTSEDSAVYFCARDYDPYFALDYWGQGTSVTVSS VL: DIVMTQSHKFMSTSVGDRVSITCRASQDVSTAVDWYQQKPGQSPKLLIYSASYRYTGVPDRFTGSGSGTAFTFTISGEQAEDLAVYYCQQHYSIPFTFGGGTKLEIKR	s⁻¹	0.00014
53C1_VH.M3-VL (antibody, human IgG1, kappa, N297A, V domains shown, Chimeric mutant, VH N57Q in the entry; human IgG1 effector-less Fc, kappa) VH: QVQLQQSGNELARPGASVRLSCKASGYIFTGYGITWVRQRPGQGLEWIGEIFPRRVQTYYSEKFKGRATLTADISSSTAYMELRSLTSEDSAVYFCARDYDPYFALDYWGQGTSVTVSS VL: DIVMTQSHKFMSTSVGDRVSITCKASQDVSTAVDWYQQKPGQSPKLLIYSASYRYTGVPDRFTGSGSGTAFTFTISGEQAEDLAVYYCQQHYSIPFTFGGGTKLEIKR	s⁻¹	0.00014
29A8_VH-VL.M1 (antibody, human IgG1, kappa, N297A, V domains shown, human IgG1 effector-less Fc, kappa) VH: DVQLQGSGPGLVKPSQSLSLTCTVTGYSITSDFAWDWIRQFPGNKLEWMGHIRFSGTTSYNPSLKSRISITRDTSKNQFFLQLNSVTSEDTATYYCARSTLITKGFFDYWGQGTTLTVSS VL: DIVMTQSHKFMSTSVGGRVSITCRASQDVSPAVAWYQQKPGQSPKLLIYWASTRHTGVPDRFTGSGSGTDFTLTISSVQTEDLALYYCQQHYSTPWTFGGGTKLEIKR	s⁻¹	0.00015

# ---- query binder ----
Form field: reported koff of 29A8_chimeric (antibody, human IgG1, kappa, N297A, V domains shown, Human IgG1 with effector-less Fc mutations, human kappa; also called chimeric 29A8H8C7) VH: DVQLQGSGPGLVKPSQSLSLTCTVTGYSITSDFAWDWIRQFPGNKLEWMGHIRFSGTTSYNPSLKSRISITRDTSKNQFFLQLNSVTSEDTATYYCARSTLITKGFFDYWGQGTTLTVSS VL: DIVMTQSHKFMSTSVGGRVSITCKASQDVSPAVAWYQQKPGQSPKLLIYWASTRHTGVPDRFTGSGSGTDFTLTISSVQTEDLALYYCQQHYSTPWTFGGGTKLEIKR
0.00017
